# Study target: Human RSK2 (Homo sapiens (Human))
Exercise: state measured pIC50 for each of the compounds provided.
Numbers only, as −log10 of the molar value.

# Compound, pIC50
data = [
    ("O=C(Nc1nc2ccccc2n1CCc1ccccn1)c1ccc2cc3n(c2c1)CCCNC3=O", 7.66),
    ("CC1CCNC(=O)c2cc3ccc(C(=O)Nc4cccnc4)cc3n21 (centres unmarked)", 7.39),
    ("Cn1cc(NC(=O)c2ccc3cc4n(c3c2)CCCNC4=O)nc1C(=O)NC1CCCC1", 8.05),
    ("O=C(Nc1nc2cc(F)ccc2[nH]1)c1ccc2cc3n(c2c1)CCCNC3=O", 8.28),
]

For the next question, use this compound.
input: # query: pIC50 of entry CC1CNC(=O)c2cc3ccc(C(=O)Nc4cnn(C)c4)cc3n21 (centres unmarked)
output: 8.29

###

# Study target: Human RSK2 (Homo sapiens (Human), UniProt P51812)
# Sequence (P51812 whole entry): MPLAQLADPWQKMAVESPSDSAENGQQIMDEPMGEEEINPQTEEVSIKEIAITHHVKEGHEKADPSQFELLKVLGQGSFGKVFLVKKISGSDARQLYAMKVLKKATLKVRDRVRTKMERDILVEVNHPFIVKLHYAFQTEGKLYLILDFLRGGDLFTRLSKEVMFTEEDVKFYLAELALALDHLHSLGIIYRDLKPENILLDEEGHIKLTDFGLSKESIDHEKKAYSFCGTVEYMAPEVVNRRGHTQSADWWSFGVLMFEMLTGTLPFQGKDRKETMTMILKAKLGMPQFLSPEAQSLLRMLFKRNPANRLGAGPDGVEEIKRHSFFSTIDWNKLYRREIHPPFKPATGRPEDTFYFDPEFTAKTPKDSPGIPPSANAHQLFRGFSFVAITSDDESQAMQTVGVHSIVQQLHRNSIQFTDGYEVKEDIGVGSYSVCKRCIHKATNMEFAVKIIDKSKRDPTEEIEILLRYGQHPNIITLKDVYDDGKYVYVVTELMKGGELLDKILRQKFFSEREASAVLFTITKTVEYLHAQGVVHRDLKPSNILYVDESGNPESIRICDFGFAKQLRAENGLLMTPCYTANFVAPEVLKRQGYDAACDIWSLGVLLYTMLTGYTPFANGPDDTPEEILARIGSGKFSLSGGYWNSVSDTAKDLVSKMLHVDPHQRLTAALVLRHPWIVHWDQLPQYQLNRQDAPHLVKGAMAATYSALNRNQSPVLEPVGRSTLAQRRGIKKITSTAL
pIC50: −log10 of the molar value.
Binary call on pIC50: True from 8 upward, False beneath that.

input: Evaluate COc1cccc(NC(=O)c2ccc3cc4n(c3c2)CCCNC4=O)c1 : pIC50 at minimum 8?
output: False

input: Evaluate Cc1cc(NC(=O)c2ccc3cc4n(c3c2)[C@@H](C)CNC4=O)no1 : pIC50 at minimum 8?
output: False

input: Evaluate CCn1c(NC(=O)c2ccc3cc4n(c3c2)[C@@H](C)[C@@H](C)NC4=O)nc2ccccc21 (relative stereo) : pIC50 at minimum 8?
output: True

input: Evaluate O=C(Nc1cnn(C2CCOCC2)c1)c1ccc2cc3n(c2c1)CCCNC3=O : pIC50 at minimum 8?
output: False

input: Evaluate CN1CCC(Cn2c(NC(=O)c3ccc4cc5n(c4c3)CCCNC5=O)nc3ccccc32)CC1 : pIC50 at minimum 8?
output: False

input: Evaluate O=C(Nc1cnn(Cc2ccccc2)c1)c1ccc2cc3n(c2c1)CC1(CCC1)CNC3=O : pIC50 at minimum 8?
output: False

input: Evaluate CC(C)c1ccc(NC(=O)c2ccc3cc4n(c3c2)CCCNC4=O)cc1 : pIC50 at minimum 8?
output: False

input: Evaluate N#Cc1ccccc1NC(=O)c1ccc2cc3n(c2c1)CCCNC3=O : pIC50 at minimum 8?
output: False

input: Evaluate CC1CNC(=O)c2cc3ccc(C(=O)Nc4nc5ccccc5n4C)cc3n21 (centres unmarked) : pIC50 at minimum 8?
output: True

input: Evaluate CC(C)(C)c1cc(NC(=O)c2ccc3cc4n(c3c2)CCCNC4=O)sn1 : pIC50 at minimum 8?
output: False

input: Evaluate CC(C)n1c(NC(=O)c2ccc3cc4n(c3c2)C(C)(C)CNC4=O)nc2ccccc21 : pIC50 at minimum 8?
output: True

input: Evaluate CC(C)n1c(NC(=O)c2ccc3cc4n(c3c2)[C@@H](C)[C@@H](C)CNC4=O)nc2ccccc21 (relative stereo) : pIC50 at minimum 8?
output: True

input: Evaluate C[C@H]1NC(=O)c2cc3ccc(C(=O)Nc4cccnc4)cc3n2[C@H]1C (relative stereo) : pIC50 at minimum 8?
output: False

input: Evaluate Cc1cnc(NC(=O)c2ccc3cc4n(c3c2)CCCNC4=O)s1 : pIC50 at minimum 8?
output: False

###

# Study target: Human RSK2 (Homo sapiens (Human), UniProt P51812)
# Test description: Human RSK2 assay (Kinase Glo Plus, residual ATP);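 note: recombinant human RSK2 phosphorylating a substrate peptide, 90 min at 28 °C, leftover ATP read by luminescence, RLU scaled between no-kinase background and uninhibited kinase controls, 4-parameter fit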
# Assay type: biochemical
Measurement label: IC50 (nM)
Give bare numbers, in nM.

Record excerpt, results attached:
# Compound, Display unit, Observed result
records = [
    ("CC1(C)CNC(=O)c2cc3ccc(C(=O)Nc4cnn(Cc5ccccc5)c4)cc3n21 [Example 134]", "nM", 1.8),
    ("CC1CNC(=O)c2cc3ccc(C(=O)Nc4nc5ccccc5[nH]4)cc3n21 (stereo not drawn) [Example 57]", "nM", 0.59),
]

For the next question, use this compound.
input: Any idea what IC50 came out for CCn1c(NC(=O)c2ccc3cc4n(c3c2)C(C)CNC4=O)nc2ccccc21 (stereo not drawn) [Example 83] on Human RSK2 (Homo sapiens (Human), UniProt P51812)?
output: 0.63
